Target: MAP3K9 (human) (UniProt P80192)
Sequence (P80192 whole entry, looked up): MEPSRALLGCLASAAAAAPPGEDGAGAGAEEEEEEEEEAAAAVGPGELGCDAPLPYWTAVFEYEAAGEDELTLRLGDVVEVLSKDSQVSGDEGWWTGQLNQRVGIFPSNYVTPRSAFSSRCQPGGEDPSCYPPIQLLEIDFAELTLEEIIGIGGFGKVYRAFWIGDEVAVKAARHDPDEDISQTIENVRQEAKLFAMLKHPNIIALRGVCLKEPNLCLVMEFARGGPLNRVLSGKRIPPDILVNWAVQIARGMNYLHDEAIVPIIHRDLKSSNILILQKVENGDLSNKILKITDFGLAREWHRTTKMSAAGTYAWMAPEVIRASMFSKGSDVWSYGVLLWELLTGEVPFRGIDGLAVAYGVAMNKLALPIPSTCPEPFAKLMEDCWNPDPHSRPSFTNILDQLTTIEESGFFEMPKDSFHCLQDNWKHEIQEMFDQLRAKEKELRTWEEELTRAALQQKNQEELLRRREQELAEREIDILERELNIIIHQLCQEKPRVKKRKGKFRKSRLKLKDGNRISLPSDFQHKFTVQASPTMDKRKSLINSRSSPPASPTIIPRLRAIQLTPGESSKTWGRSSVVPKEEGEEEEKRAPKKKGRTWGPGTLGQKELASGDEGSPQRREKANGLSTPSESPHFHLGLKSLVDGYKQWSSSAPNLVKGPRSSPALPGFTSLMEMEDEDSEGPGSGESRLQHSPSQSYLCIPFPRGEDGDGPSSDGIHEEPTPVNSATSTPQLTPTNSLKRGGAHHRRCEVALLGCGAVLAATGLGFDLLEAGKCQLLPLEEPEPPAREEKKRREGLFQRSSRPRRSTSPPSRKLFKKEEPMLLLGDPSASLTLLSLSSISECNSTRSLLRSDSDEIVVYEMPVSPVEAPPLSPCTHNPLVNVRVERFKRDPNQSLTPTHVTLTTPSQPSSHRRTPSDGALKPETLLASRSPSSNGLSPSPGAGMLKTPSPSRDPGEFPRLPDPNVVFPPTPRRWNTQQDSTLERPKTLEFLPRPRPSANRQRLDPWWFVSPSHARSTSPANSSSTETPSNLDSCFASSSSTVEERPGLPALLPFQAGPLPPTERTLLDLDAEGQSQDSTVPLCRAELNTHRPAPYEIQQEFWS
Experiment: radiometric filter-binding kinase assay, Kinase HotSpot
Conditions: compound 0.5 µM; ATP 10 µM
Give measured residual activity for each item. Keep answers brief.
Please don't drop the unit; write it after the number.

// solved cases for residual activity follow
Nc1ncnc2[nH]nc(Nc3ccc(F)cc3)c12 | 100%
CC[n+]1c(/C=C/N(C)c2ccccc2)n(-c2ccccc2)c2ccc(-c3nc4ccccc4s3)cc21 | 98.3%
Cc1ccc(NC2=CC(=O)c3sc(C)nc3C2=O)cc1 | 86.7%
COc1ccc2c(c[n+](C)c3c4cc5c(cc4ccc23)OCO5)c1OC | 98.1%
O=C1Nc2ccc(Cl)cc2/C1=C/c1cc(Cl)c(O)c(Cl)c1 | 102%
O=C1NC(=O)c2c1c1c3ccccc3n3c1c1c2c2ccccc2n1C1CCC3O1 | 8.72%
CCN(CC)C(=O)c1ccc(Nc2nc(OCC3CCCCC3)c3nc[nH]c3n2)cc1 | 3.8%

// below: residual activity requested for another compound
Query block: Return value of residual activity for input Nc1ncnc2c1c(-c1ccc(Oc3ccccc3)cc1)cn2C1CCCC1 , no commentary.
Result block: 103%

* * *

Target: PRKCZ (human) (UniProt Q05513)
Sequence (Q05513 whole entry, looked up): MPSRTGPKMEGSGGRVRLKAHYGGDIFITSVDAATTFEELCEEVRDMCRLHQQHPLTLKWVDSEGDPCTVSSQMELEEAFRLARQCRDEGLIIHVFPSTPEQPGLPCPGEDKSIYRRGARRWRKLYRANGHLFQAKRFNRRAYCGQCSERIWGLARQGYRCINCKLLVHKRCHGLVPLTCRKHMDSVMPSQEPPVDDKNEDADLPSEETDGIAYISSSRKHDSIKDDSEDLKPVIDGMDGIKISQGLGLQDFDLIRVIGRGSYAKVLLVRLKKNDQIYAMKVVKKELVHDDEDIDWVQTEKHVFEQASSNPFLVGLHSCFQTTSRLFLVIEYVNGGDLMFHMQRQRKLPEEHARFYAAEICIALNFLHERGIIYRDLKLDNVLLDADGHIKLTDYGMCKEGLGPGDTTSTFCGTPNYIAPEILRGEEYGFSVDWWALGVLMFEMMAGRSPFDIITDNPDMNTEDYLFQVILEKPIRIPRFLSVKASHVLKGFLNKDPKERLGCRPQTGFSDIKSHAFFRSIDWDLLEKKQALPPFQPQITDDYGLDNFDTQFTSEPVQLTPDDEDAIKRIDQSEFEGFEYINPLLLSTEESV
Experiment: radiometric filter-binding kinase assay, Kinase HotSpot
Settings: compound 0.5 µM; ATP 10 µM
measured.quantity: residual activity
Please don't drop the unit; write it after the number.

Nc1cccc(-c2cc3c(Oc4cccc(O)c4)ncnc3[nH]2)c1 | 94%
N#C/C(=C(/N)Sc1ccc(N)cc1)c1ccccc1C(F)(F)F | 106%
COc1ccc2c(c[n+](C)c3c4cc5c(cc4ccc23)OCO5)c1OC | 97.7%

# map each molecule to its residual activity
1. COc1ccc(COc2ccc(Cc3cnc(N)nc3N)cc2OC)cc1
2. O=C1NC(=O)/C(=C/c2ccc3c(c2)OC(F)(F)O3)S1
3. CC[n+]1c(/C=C/N(C)c2ccccc2)n(-c2ccccc2)c2ccc(-c3nc4ccccc4s3)cc21

Result block:
1: 93.4%; 2: 103%; 3: 99.8%

# map each molecule to its residual activity
1. N#CC(C#N)=C(N)/C(C#N)=C/c1ccc(O)cc1
2. O=C1NC(=O)C(c2cn(CCCn3ccnc3)c3ccccc23)=C1Nc1ccccc1
3. Cc1[nH]c(/C=C2\C(=O)Nc3ccc(S(=O)(=O)N(C)c4cccc(Cl)c4)cc32)c(C)c1C(=O)N1CCN(C)CC1

Result block:
105%
99.6%
94.5%

* * *

Target: LIMK1 (human) (UniProt P53667)
Sequence (P53667 whole entry, looked up): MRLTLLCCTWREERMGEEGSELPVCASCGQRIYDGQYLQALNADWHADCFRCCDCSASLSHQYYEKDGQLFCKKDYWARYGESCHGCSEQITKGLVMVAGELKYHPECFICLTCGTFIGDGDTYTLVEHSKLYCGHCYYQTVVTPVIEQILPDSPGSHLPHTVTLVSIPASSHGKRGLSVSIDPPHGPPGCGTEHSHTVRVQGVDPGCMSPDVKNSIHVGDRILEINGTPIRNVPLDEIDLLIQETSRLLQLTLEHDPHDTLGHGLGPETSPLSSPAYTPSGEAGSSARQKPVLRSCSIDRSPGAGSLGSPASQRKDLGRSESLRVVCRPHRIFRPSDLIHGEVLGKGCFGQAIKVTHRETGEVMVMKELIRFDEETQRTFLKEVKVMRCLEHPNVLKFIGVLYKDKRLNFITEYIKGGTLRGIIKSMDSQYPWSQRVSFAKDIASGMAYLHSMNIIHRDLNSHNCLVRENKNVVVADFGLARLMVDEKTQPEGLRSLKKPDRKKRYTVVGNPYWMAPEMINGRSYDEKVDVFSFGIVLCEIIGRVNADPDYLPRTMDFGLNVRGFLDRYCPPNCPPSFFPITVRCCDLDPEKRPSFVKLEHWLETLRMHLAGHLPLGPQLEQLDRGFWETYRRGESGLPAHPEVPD
Experiment: radiometric filter-binding kinase assay, Kinase HotSpot
Details: compound 0.5 µM; ATP 10 µM
// boundary case: residual activity equal to 90% maps to condition not met; strictly smaller maps to condition met

Answered cases to consult:
CCN(CC)C(=O)c1ccc(Nc2nc(OCC3CCCCC3)c3nc[nH]c3n2)cc1 | condition met
c1ccc(-c2n[nH]cc2-c2ccnc3ccccc23)nc1 | condition not met
Cc1ccc(S(=O)(=O)/C=C/C#N)cc1 | condition not met
CC(=O)c1ccc(N2CCOCC2)cc1O | condition not met
CC(C)N(CCC(=O)c1ccc2ccccc2c1)Cc1ccccc1 | condition not met

Query block: Dear colleague, could you confirm whether residual activity of O=C1NC(=O)c2c1c1c3ccccc3n3c1c1c2c2ccccc2n1C1CCC3O1 falls below 90%? Thanks.
Result block: condition met

Query block: Dear colleague, could you confirm whether residual activity of Oc1cccc(-c2nc(N3CCOCC3)c3oc4ncccc4c3n2)c1 falls below 90%? Thanks.
Result block: condition not met

Query block: Dear colleague, could you confirm whether residual activity of COc1ccc2c(c[n+](C)c3c4cc5c(cc4ccc23)OCO5)c1OC falls below 90%? Thanks.
Result block: condition not met

Query block: Dear colleague, could you confirm whether residual activity of O=S(=O)(c1cccc2cnccc12)N1CCCNCC1 falls below 90%? Thanks.
Result block: condition not met

Query block: Dear colleague, could you confirm whether residual activity of O=C(Nc1cccc(Nc2nccc(Nc3cccc(C(F)(F)F)c3)n2)c1)C1CC1 falls below 90%? Thanks.
Result block: condition met

Query block: Dear colleague, could you confirm whether residual activity of Nc1ncnc2c1c(-c1ccc(Oc3ccccc3)cc1)cn2C1CCCC1 falls below 90%? Thanks.
Result block: condition not met
